Tested on: DMS-114
Test: NCI tumour cell line growth inhibition, 48 h
Active and inactive are the calls of the source. Cut-off read from the data, not from the text of the source: active = GI50 up to about 1.1 µM and inactive = higher.
property.label: GI50

Sample records with GI50:
COc1ccc(OC2(c3cc(OC)ccc3OC)OC(=O)c3ccccc32)cc1 (centres undefined): > 100 µM (inactive)
O=C(O)C1=C(C(=O)Nc2ccc(NC(=O)C3=C(C(=O)O)C4C=CC3C4)cc2)C2C=CC1C2: > 100 µM (inactive)
CC(C)=CC(=O)N(C)C1C2CN3CCC(O2)C13 (centres undefined): > 100 µM (inactive)
Cc1noc2cccc(OCc3ccccc3)c12: 29 µM (inactive)
COc1cc2c(c3c1c(=O)c1ccccc1n3C)C=CC(C)(C)O2 [ACRONINE]: 45.4 µM (inactive)

Lookup result for `C#Cc1cccc(N2C(=O)c3c(c(-c4ccccc4)c(-c4ccc(Cc5ccc(-c6c(-c7ccccc7)c7c(c(-c8ccccc8)c6-c6ccccc6)C(=O)N(c6cccc(C#C)c6)C7=O)cc5)cc4)c(-c4ccccc4)c3-c3ccccc3)C2=O)c1` ; measured GI50: 20.5 µM (inactive)

According to the records, this compound Cc1cc2c([nH]c3ccccc32)c2c1OC(C)(C)C1C3CC(C)(C)Oc4c(C)cc5c6ccccc6n(c5c43)C21 (centres undefined) displays GI50 of > 100 µM (inactive)

For `COc1cc2c(c(OC)c1OC)C(=O)NCCC2` the compound record lists GI50 as > 100 µM (inactive)

# compound `N/N=c1\c2ccccc2c2cc3c(cc12)/c(=N/N)c1ccccc13` ; its GI50 = > 100 µM (inactive)

For record `N#Cc1c2c(c(N=[N+]=[N-])n3c1nc1ccccc13)CCCC2` the listed GI50 is 1.19 µM (inactive)

// recorded GI50 for `S=C(N/N=C/c1ccco1)NC12CC3CC(CC(C3)C1)C2` : 37.3 µM (inactive)

The compound identified as `CCCN1C(=O)C/C(=C\C(C)=O)Nc2ccccc21` registered its GI50 at 71.4 µM (inactive)

compound `CN(C)CCCCC1CCN(CC(=O)N2c3ccccc3NC(=O)c3ccccc32)CC1` , GI50 observed: > 100 µM (inactive)

Just so you know, measured GI50 for CCCCCCCCCCCCCC(=O)OC1C(CO)OC(=O)C1O (centres undefined) came out at > 100 µM (inactive)

Recorded result, `CN(C)CCC(/C=C/c1ccccc1)=N\Nc1ccc(Cl)cc1` , GI50: 2.4 µM (inactive)

Value of GI50 reported for the compound `c1cncc(O[Si](Oc2cccnc2)(Oc2cccnc2)Oc2cccnc2)c1` is > 100 µM (inactive)
